target_desc: von Willebrand factor full length (Homo sapiens, UniProt P04275 SEQ:764-2813)
procedure_details: filter; 40% bound at 100 nM
assay_context: tags: Calbiochem 681300
value_type: pKd
# pKd is unitless: minus log10 of the molar concentration; print number only

INPUT: For GGCGTGCAGUGCCTTCGGCCGTGCGGTGCCTCCGTCACGCC (ssDNA, 2'-OMe at 10 (mU); 3'-idT) [ARC1203] , what is its reported pKd?
OUTPUT: 8.52

INPUT: For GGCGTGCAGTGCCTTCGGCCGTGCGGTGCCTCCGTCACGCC (ssDNA, 2'-OMe at 34; 3'-idT) [ARC1227] , what is its reported pKd?
OUTPUT: 8.52

INPUT: For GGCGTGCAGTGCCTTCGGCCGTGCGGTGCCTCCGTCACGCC (ssDNA, 2'-OMe at 29; 3'-idT) [ARC1222] , what is its reported pKd?
OUTPUT: 9.05

INPUT: For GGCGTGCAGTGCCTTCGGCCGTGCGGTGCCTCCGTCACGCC (ssDNA, 2'-OMe at 23; 3'-idT) [ARC1216] , what is its reported pKd?
OUTPUT: 9.22

INPUT: For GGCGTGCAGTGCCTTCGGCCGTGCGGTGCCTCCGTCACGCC (ssDNA, 2'-OMe at 11,12,13,17,18,19; 3'-idT) [ARC1240] , what is its reported pKd?
OUTPUT: 8.40

Numbers sourced from patent US20060264369.
